# Test system: EKVX NSCLC
# assay-comment: NCI-60 one-dose screen, 48 h (100 = growth as untreated, 0 = no growth, -100 = all killed)
# experimental-parameters: 10 µM unless noted
Compounds without any hit were thinned out: in the full panel of roughly 83,000, 20% have a hit.

- compound: "Cc1[nH]nc2ccc3nc(-c4ccc5[nH]ncc5c4)c4c(c3c12)CCCC4"
  study-target: "EKVX NSCLC"
  growth / %: 20.2
- compound: "O=C(Nc1cccc(Cl)c1)Nc1cc(C(F)(F)F)ccc1Cl"
  study-target: "EKVX NSCLC"
  growth / %: 16
- compound: "Cc1cc(-c2nnc(/C=C/c3ccc4c(c3)OCO4)o2)n[nH]1"
  study-target: "EKVX NSCLC"
  growth / %: 90.6
- compound: "CCOC(=O)NNc1cccc(Cl)c1"
  study-target: "EKVX NSCLC"
  growth / %: 90.6
- compound: "CCC(C)C1NC(=O)c2nc(oc2-c2ccccc2)-c2csc(n2)-c2csc(n2)-c2nc(oc2C)-c2coc(n2)CNC(=O)C(C(C)CC)NC1=O (stereo not given)"
  study-target: "EKVX NSCLC"
  growth / %: -71.3
- compound: "O=C(Nc1ccccc1)C(CCCCN1C(=O)c2ccccc2C1=O)N1C(=O)c2ccccc2C1=O (stereo not given)"
  study-target: "EKVX NSCLC"
  growth / %: 105
- compound: "O=C(c1ccccc1)N(CCCCl)C(=O)N(CCCCl)C(=O)c1ccccc1"
  study-target: "EKVX NSCLC"
  growth / %: 81
- compound: "COc1ccc2c(c1)N(CCO)C1=C(C(=O)OC1)C2c1cccc(Br)c1 (stereo not given)"
  study-target: "EKVX NSCLC"
  growth / %: 37.4
- compound: "C/C(=N\\NC(=S)Nc1ccccc1)c1ccccn1"
  study-target: "EKVX NSCLC"
  growth / %: 12.9
- compound: "CC(C)(C)NC(=O)C(OC(=O)C1CCc2cc(F)ccc2O1)c1ccccc1Cl (stereo not given)"
  study-target: "EKVX NSCLC"
  growth / %: 96
- compound: "COc1cc(/C=C/C(=O)c2ccc(NC(=O)CSc3nnc(-c4ccc(Cl)cc4)n3-c3ccccc3)cc2)cc(OC)c1OC"
  study-target: "EKVX NSCLC"
  growth / %: 75.1
- compound: "CN1CCN(Cc2ccc(NC(=O)c3cncc(C#Cc4ncc5ccccn45)c3)cc2C(F)(F)F)CC1"
  study-target: "EKVX NSCLC"
  growth / %: 43.9
- compound: "CCOCC(O)(c1ccc(Cl)cc1)c1ccc(Cl)cc1"
  study-target: "EKVX NSCLC"
  growth / %: 94.1
- compound: "c1ccc(-c2[nH]c3ccccc3c2-c2ccccc2)cc1"
  study-target: "EKVX NSCLC"
  growth / %: 77.1
- compound: "COc1c(-c2cc(-c3ccc(C)o3)[nH]c(=O)n2)c(O)cc2occc12"
  study-target: "EKVX NSCLC"
  growth / %: 69.8
- compound: "NC(=O)Nc1ccc2ncnc(Nc3cccc(O)c3)c2c1"
  study-target: "EKVX NSCLC"
  growth / %: 82.6
- compound: "Nc1ccc(N(O)/C=C2\\C=CC=CC2=O)cc1N"
  study-target: "EKVX NSCLC"
  growth / %: 96.4
- compound: "COc1ccc(/C=c2\\c(=O)n(-c3ccccc3)c3nn4c(n23)=NNC42CCCCC2)cc1"
  study-target: "EKVX NSCLC"
  growth / %: 91.8
- compound: "COC(=O)c1cc(Cl)cc([N+](=O)[O-])c1O"
  study-target: "EKVX NSCLC"
  growth / %: 88.8
- compound: "C#CC[C@@H]1C[C@]2(C)[C@H]3CC[C@@H]4[C@H]5C(C(=C)C)CC[C@]5(C(=O)NCCCN5CCN(CCCN)CC5)CC[C@@]4(C)[C@]3(C)CC[C@H]2C(C)(C)[C@H]1OC(C)=O (stereo not given in full)"
  study-target: "EKVX NSCLC"
  growth / %: 51.9

* * *

# System: HOP-92 NSCLC
# assay-comment: NCI-60 one-dose screen, 48 h
# experimental-parameters: 10 µM unless noted
This is part of a sample that, as a whole, favours compounds with a hit. Of some 83,000 tested, about 20% had one in any assay. Activity calls are given as the source filed them. Rule for the calls: active = growth percent below 10; inactive = the rest.
Possible outcomes: active, inactive

- compound: "CN(CCO)c1ccc(N2Cc3ccccc3OC3=C2C(=O)c2c(O)ccc(O)c2C3=O)cn1"
  qualitative-label: "active"
- compound: "CCCCCNCCCCCNc1cc(OC)cc2cccnc12"
  qualitative-label: "active"
- compound: "O=C1C=CC(=O)N1CO"
  qualitative-label: "inactive"
- compound: "Cc1nn(-c2ccc(Cl)cc2)c(=O)n1CCN1CCOCC1"
  qualitative-label: "inactive"
- compound: "Cc1ccc2cc3c(NC(=O)c4cccnc4)nn(C)c3nc2c1"
  qualitative-label: "inactive"
- compound: "Cc1nc2c(-c3cnc(N)nc3)nc(N3CCOCC3)nc2n1C(C)C"
  qualitative-label: "active"
- compound: "CCCCN(CCCC)CCC(=O)c1ccc(OC)c2ccccc12"
  qualitative-label: "active"
- compound: "CC(=O)c1c(O)c(C)c(O)c2c1OC1=CC(=O)/C(=C(/C)N)C(=O)C12C (configuration not stated)"
  qualitative-label: "inactive"
- compound: "COc1ccc2c(c1)CCCC21C(=O)Nc2c(Cl)cccc21 (configuration not stated)"
  qualitative-label: "inactive"
- compound: "CCc1ccc2c(c1)N(CCO)C1=C(C(=O)OC1)C2c1cccc(Cl)c1 (configuration not stated)"
  qualitative-label: "inactive"
- compound: "CCCCn1c(C)nc2cc(Nc3nc(Cl)nc4nc[nH]c34)ccc21"
  qualitative-label: "active"
- compound: "Cc1cc(C)cc(NC(=O)Cn2nncc2CN2C(=O)CSC2=O)c1"
  qualitative-label: "inactive"
- compound: "COc1ccc(-c2oc(=O)ccc2-c2cc(OC)c(OC)c(OC)c2)cc1F"
  qualitative-label: "inactive"
- compound: "COc1ccc(/C(=C\\c2cc(OC)c(OC)c(OC)c2)C(=O)N2CCN(c3ccccc3)CC2)cc1O"
  qualitative-label: "inactive"
- compound: "Cc1ccc(NC(=O)c2nc(S(C)=O)oc2-c2ccc(F)cc2)cc1Nc1nccc(-c2cccnc2)n1 (configuration not stated)"
  qualitative-label: "inactive"
- compound: "CN1CCN(Cc2ccc(NC(=O)c3cnc(F)c(C#Cc4cnc(N)c5ncccc45)c3)cc2C(F)(F)F)CC1"
  qualitative-label: "active"
- compound: "CCOC(=O)c1ccc(NCCC(=O)O)cc1"
  qualitative-label: "inactive"
- compound: "CCOC(=O)c1ccccc1SC(C[N+](=O)[O-])c1ccccc1 (configuration not stated)"
  qualitative-label: "inactive"
- compound: "Cc1nc2ccc(Nc3nc(Cl)nc(N4CCOCC4)n3)cc2n1Cc1ccccc1"
  qualitative-label: "inactive"
- compound: "COc1ccccc1NC(=O)OCC12COCN1COC2"
  qualitative-label: "inactive"
- compound: "Cc1ccc(N2C3c4ccccc4N(S(=O)(=O)c4ccc(C)cc4)C2c2ccccc2N3S(=O)(=O)c2ccc(C)cc2)cc1"
  qualitative-label: "inactive"
- compound: "COc1ccc(-c2nsc3c2NC(=O)CC3c2ccc3c(c2)OCO3)cc1 (configuration not stated)"
  qualitative-label: "active"

* * *

# System: SNB-75 CNS
# assay-comment: NCI-60 one-dose screen, 48 h (100 = growth as untreated, 0 = no growth, -100 = all killed)
# experimental-parameters: 10 µM unless noted
This is part of a sample that, as a whole, favours compounds with a hit. Of some 83,000 tested, about 20% had one in any assay.
Definition: the class of an entry is the range in zone 1: < 20%; zone 2: ≥ 20% and < 80%; zone 3: ≥ 80% that contains its growth.

- compound: "CC(=O)O[C@H]1[C@H](CC#CC#CC[C@@H]2C[C@]3(C)[C@H]4CC=C5[C@H]6[C@@H](C)[C@H](C)CC[C@]6(C(=O)NCCN(CCN)CCN)CC[C@@]5(C)[C@]4(C)CC[C@H]3C(C)(C)[C@H]2OC(C)=O)C[C@]2(C)[C@H]3CC=C4[C@H]5[C@@H](C)[C@H](C)CC[C@]5(C(=O)NCCN(CCN)CCN)CC[C@@]4(C)[C@]3(C)CC[C@H]2C1(C)C"
  study-target: "SNB-75 CNS"
  qualitative-label: "zone 2"
- compound: "CC(C)(C)NC(=O)C(OC(=O)C1CCc2cc(F)ccc2O1)c1ccccc1Cl (stereo not drawn)"
  study-target: "SNB-75 CNS"
  qualitative-label: "zone 3"
- compound: "CN(C)c1ccc(N2Cc3ccccc3OC3=C2C(=O)c2c(O)ccc(O)c2C3=O)cn1"
  study-target: "SNB-75 CNS"
  qualitative-label: "zone 1"
- compound: "COc1c(C(=O)/C=C/c2ccc(C)o2)c(O)cc2occc12"
  study-target: "SNB-75 CNS"
  qualitative-label: "zone 2"
- compound: "CCCCCc1c(C)[nH]c(/C=C2\\N=C(c3ccc[nH]3)C=C2CC)c1C"
  study-target: "SNB-75 CNS"
  qualitative-label: "zone 1"
- compound: "CC(=O)c1c(O)c(C)c(O)c2c1OC1=CC(=O)/C(=C(/C)N)C(=O)C12C (stereo not drawn)"
  study-target: "SNB-75 CNS"
  qualitative-label: "zone 3"
- compound: "Fc1cc(-c2nnc3sc(-c4ccc(Cl)cc4)nn23)c(Cl)cc1Cl"
  study-target: "SNB-75 CNS"
  qualitative-label: "zone 2"
- compound: "CCOc1ccc([C@@H]2[C@@H](Oc3ccccc3)C(=O)N2c2cc(OC)c(OC)c(OC)c2)cc1"
  study-target: "SNB-75 CNS"
  qualitative-label: "zone 2"
- compound: "COc1ccccc1NC(=O)OCC12COCN1COC2"
  study-target: "SNB-75 CNS"
  qualitative-label: "zone 3"
- compound: "CS(=O)(=O)Nc1cc(-c2cc3ncc(C#N)c(Nc4ccc(Oc5ccccc5)c(Cl)c4)c3s2)cnc1Cl"
  study-target: "SNB-75 CNS"
  qualitative-label: "zone 2"
- compound: "Cc1[nH]n(C(=O)c2ccncc2)c(=O)c1N=Nc1ccc(O)c(C(=O)O)c1"
  study-target: "SNB-75 CNS"
  qualitative-label: "zone 3"
- compound: "CCSc1ccc([C@@H]2[C@@H](N)C(=O)N2c2cc(OC)c(OC)c(OC)c2)cc1"
  study-target: "SNB-75 CNS"
  qualitative-label: "zone 2"
- compound: "Cc1nn(-c2ccc(Cl)cc2)c(=O)n1CCN1CCOCC1"
  study-target: "SNB-75 CNS"
  qualitative-label: "zone 1"
- compound: "CCCNC(=S)N/N=C(\\C)c1ccccn1"
  study-target: "SNB-75 CNS"
  qualitative-label: "zone 2"
- compound: "COc1cc(/C=C/C(=O)c2c(C)nc3ccccc3c2C)ccc1OCCCOc1cc2c(cc1OC)C(=O)N1CCC[C@H]1C=N2"
  study-target: "SNB-75 CNS"
  qualitative-label: "zone 1"
- compound: "Cc1nc2c(-c3cnc(N)nc3)nc(N3CCOCC3)nc2n1C(C)C"
  study-target: "SNB-75 CNS"
  qualitative-label: "zone 1"

Where these numbers come from: PubChem BioAssay (NCI)
